System: KM-20L2
Test: NCI tumour cell line growth inhibition, 48 h
Activity calls are given as the source filed them. No stated cut-off is given here; in the data, active = GI50 up to about 1.1 µM and inactive = higher.
Entries annotated with measured GI50
Property Name: GI50

1) COc1ccc2c3c([nH]c2c1[N+](=O)[O-])C(C)N(Cc1ccc([N+](=O)[O-])cc1)CC3 (stereo unspecified) = 10.8 µM (inactive)
2) O=S1(=O)COc2ccccc2-c2ncncc21 = > 100 µM (inactive)
3) O=C(CCl)NNC1=Nc2ccc(Cl)cc2SC1 = 4.3 µM (inactive)
4) Cc1cc2c(C)n(Cc3ccccc3Cl)nc2c(C(=O)O)c1C = > 100 µM (inactive)
5) Cc1ccccc1-c1cc(=O)c2cc(C)c(C)c(C(=O)O)c2o1 = > 100 µM (inactive)
6) Cc1cc2c(=O)cc(-c3ccc(Cl)cc3Cl)oc2c(C(=O)O)c1C = > 100 µM (inactive)

----------
System: UACC-257
Experiment: NCI tumour cell line growth inhibition, 48 h
Calls of active or inactive are those of the source. No stated cut-off is given here; in the data, active = GI50 up to about 1.1 µM and inactive = higher.
Classes used: y for active, n for inactive

1) Oc1cc(/C=C/c2ccccc2)nc2cc3c(cc12)OCO3 = n
2) O=C(O)c1ccccc1/C=N\N=C1NCCN1 = n
3) O=C(Nc1c(O)[nH]c(=S)[nH]c1=O)c1ccc2ccccc2n1 = n
4) COc1cc(C(C[N+](=O)[O-])SC(C)=O)ccc1OCc1ccccc1 (centres undefined) = n
5) ClC1c2ccccc2C2(c3ccccc3)OOC1(c1ccccc1)O2 (centres undefined) = n
6) COc1cc(/C=C2\[C@H]3c4c(c(OC)c(C)c(OC)c4OC)CC(C(=O)N2Cc2ccccc2)N3C)c(OC)c(C)c1OC = n
7) Cn1c(=O)c2[nH]c(Nc3cccc(Cl)c3)nc2n(C)c1=O = n
8) CC(=O)Oc1ccc2cc(-c3ccc(OC(C)=O)c(OC(C)=O)c3)c(=O)oc2c1 = n
9) Oc1cc(-c2ccc3ccccc3c2)nc2ncccc12 = n
10) Cc1cccc(/C=C2\CCCCCC2=O)c1 = n
11) COc1ccc(N2C(Cl)C(=O)C2c2c[nH]c3ccccc23)cc1 (centres undefined) = n
12) COc1cc2cnc3c4ccccc4ccc3c2cc1OC = n
13) CNC(=O)NCCN1CC2CCC(CC2)C1 = n
14) CC[C@]12C=CCN3CCC4(c5cc([C@@]6(C(=O)OC)CC7CN(CCc8c6[nH]c6ccccc86)C[C@@H]6CCC[C@H]76)c(OC)cc5N(C)C4[C@](O)(C(=O)OC)C1OC(C)=O)C32 (some centres undefined) = y
15) O=C(/C=C/c1cc(F)ccc1F)OCCc1ccccc1 = n
16) CCOC(=O)C(CCN1CCC2(CC1)C(=O)N(C)CN2c1ccccc1)C(=O)OCC = n
17) Cc1ccc2nc(/C=N/c3ccccc3Cl)cc(C)c2c1 = n
18) C/C=C1/C(=O)O[C@]23C=C[C@@H]4C(C(=O)OC)=CO[C@H](O[C@@H]12)[C@@H]43 = y
19) C=C(C)[C@@H](O)[C@H](O)C[C@H](C)C1CC[C@]2(C)C1=CC[C@@H]1[C@@]3(C)CC[C@@H](OC(C)=O)C(C)(C)[C@@H]3C[C@@H](OC3OC(COC(C)=O)C(O)C(O)C3O)[C@]12C (some centres undefined) = n
20) Cc1ccc(S(=O)(=O)ON2C(=O)c3cccc4cc([N+](=O)[O-])cc(c34)C2=O)cc1 = n
21) O=c1ccc2nc3ccc(O)cc3oc-2c1 = n
22) O=[N+]([O-])c1ccc(CSC2=C(c3ccc(Cl)cc3)S/C(=C3\SC(SCc4ccc([N+](=O)[O-])cc4)=C(c4ccc(Cl)cc4)S3)S2)cc1 = n
23) CCCCCCCCCC(=O)OCC1OC(n2cc(F)c(=O)[nH]c2=O)C(N)C(OC(=O)CCCCCCCCC)C1O (centres undefined) = n
24) COC1=C2CC(C)CC(OC)C(OC(=O)CN)[C@H](C)/C=C(\C)C(OC(N)=O)C(OC)/C=C\C=C(/C)C(=O)NC(=CC1=O)C2=O (some centres undefined) = y
25) CCCCn1c2c(n(CCCC)c1=[Se])-c1c(n(CCCC)c(=[Se])n1CCCC)S[Se][Se]S2 = n
26) C/C(=N\NC(=S)Nc1ccc(Cl)cc1)c1nc2cccnc2[nH]1 = n
27) O=P(O)(CCP(=O)(O)c1ccccc1)c1ccccc1 = n
28) CC(=O)CC(=O)/C=C/c1cccs1 = n
29) COc1cc2c(c(O)c1OC)C(O)C1CCC(=O)N1C2c1ccc2c(c1)OCO2 (centres undefined) = n
30) C=C1C(=O)OC2/C=C(\C)CC/C=C(\C)CC(OC(=O)/C(=C/CO)CO)[C@@H]12 (some centres undefined) = n
31) COc1cc(CNc2nc3cc(C(F)(F)F)ccc3nc2-c2ccccc2)cc(OC)c1OC = n
32) C[n+]1ccc2/c(=C\C#N)c3ccccc3n21 = y
33) CN(N)C(=O)NCCCl = n
34) COC(=O)C12C3C4C1C1C2C3C41I (centres undefined) = n
35) CC1=C(c2ccccc2)CON(c2ccccc2)C1 = n
36) CCn1c(=O)c2ccccc2n2c(=O)c3cc4ccccc4cc3nc12 = n
37) C[C@H]1C[C@H]2[C@@H]3C(C)(C)O[C@]4(O)C(=O)[C@]5(O)[C@@H](C)CC[C@H]1[C@]25C(=O)[C@]34C = n
38) COC(=O)[C@@]12C(=O)C(C)C(=O)[C@]1(C)C(C)=C[C@H]1[C@]3(C=O)CC[C@H](OC(C)=O)C(C)(C)[C@H]3CC[C@@]12C (some centres undefined) = n
39) O=c1oc2cccnc2n1CCCCN1CCN(c2ccccc2)CC1 = n

----------
Entries annotated with measured GI50
Tested on: SK-MEL-28
Assay: NCI tumour cell line growth inhibition, 48 h
Active and inactive are the calls of the source. No stated cut-off is given here; in the data, active = GI50 up to about 1.1 µM and inactive = higher.
Property Name: GI50

1) CN(C)CCC(=O)[C@@]1(O)CC[C@H]2[C@@H]3CC=C4C[C@@H](O)CC[C@]4(C)[C@H]3CC[C@@]21C = 17.2 µM (inactive)
2) C1=C(c2ccccc2)NC2=N[C@H]3CCCC[C@@H]3N2C1c1ccccc1 (stereo not given in full) = 14.3 µM (inactive)
3) O=C1NC(Cc2c[nH]c3ccccc23)C(=O)N2C(C3CCCCC3)c3[nH]c4ccccc4c3C[C@@H]12 (stereo not given in full) = 16.4 µM (inactive)
4) NC(=O)NC1NC(=O)NC1=O (stereo not given) = > 100 µM (inactive)
5) CCN1CC2(C)CCC(OC)C34C5CC6CCC(O)(C5C(=O)O6)C(C(O)C23)C14 (stereo not given) = > 100 µM (inactive)
6) CC(=O)C(CN1CCOCC1)C(c1ccccc1)c1c(O)c2ccccc2oc1=O (stereo not given) = > 100 µM (inactive)
7) CC(C)(C)NC(NC(C)(C)C)=C(/C=C(/Cl)[N+](=O)[O-])[N+](=O)[O-] = > 100 µM (inactive)
8) CC(=O)NC1=C(NCC(C)C)C(=O)c2ccccc2C1=O = 17.1 µM (inactive)
9) CCOC(=O)NC(Nc1ncn(C(NC(=O)OCC)(C(F)(F)F)C(F)(F)F)n1)(C(F)(F)F)C(F)(F)F = > 100 µM (inactive)
10) c1ccc2c(c1)ccn2CCc1c[nH]c2ccccc12 = > 10 µM (inactive)
11) CC1(C)C(CBr)=[N+]([O-])C(C)(C)N1O = > 10 µM (inactive)
12) CS(=O)(=O)N1CC(CCl)c2ccc([N+](=O)[O-])cc21 (stereo not given) = > 100 µM (inactive)
13) COc1cc2cnc3c4ccccc4ccc3c2cc1OC = > 100 µM (inactive)
14) O=c1oc2cccnc2n1CCCCN1CCN(c2ccccc2)CC1 = > 100 µM (inactive)
15) O=C(CCl)NNC1=Nc2ccc(Cl)cc2SC1 = 2.03 µM (inactive)
16) Cc1ccc(S(=O)(=O)OCCn2cnc3nc(NC(=O)c4ccccc4)[nH]c(=O)c32)cc1 = > 100 µM (inactive)
17) CC(C)N1CCC2(CC1)NNc1ncccc1-n1cccc12 = > 100 µM (inactive)
18) O=c1[nH]c(=O)n(C2OC3COC2C3O)cc1F (stereo not given) = > 100 µM (inactive)
19) COc1ccc(/N=N/C(=O)NC(CC(C)C)C(=O)NC(C)C(=O)O)cc1 (stereo not given) = 17.1 µM (inactive)
20) O=C(O)/C=C/c1nc2ccccc2c(=O)o1 = > 100 µM (inactive)
21) CC(C)CC1NC(=O)CCC(NC(=O)C(Cc2ccc(O)cc2)NC(=O)OCc2ccccc2)C(=O)NC(Cc2ccccc2)C(=O)NC(Cc2ccccc2)NC1=O (stereo not given) = > 100 µM (inactive)
22) O=C(O)c1nn(-c2ccc(Cl)cc2)c2c1C(=O)c1ccccc1C2=O = > 100 µM (inactive)
23) CC1CCC(=O)C(C(=O)CC2CC(=O)N(C)C(=O)C2)C1 (stereo not given) = > 100 µM (inactive)
24) COC(=O)C1Cc2c(n(Cc3ccccc3)c3ccccc23)C(CCC(=O)O)N1C(C)C (stereo not given) = > 100 µM (inactive)
25) O=c1c2c(nc3[nH]ccn13)CCCC2 = > 10 µM (inactive)
26) N#CC(C(=O)CCC(=O)Nc1cccc(C(F)(F)F)c1)c1ccccc1 (stereo not given) = > 100 µM (inactive)
27) NC1CCCCC1.O=P(O)(O)C1(P(=O)(O)O)CC1 = > 100 µM (inactive)
28) C[C@]12CC(C=O)C(=O)C(O)=C1CC[C@@H]1C2CC[C@@]2(C)C1CC[C@]2(C)O (stereo not given in full) = 25.8 µM (inactive)
29) COC(=O)[C@@H]1C(=O)O[C@@H](c2ccc(OC)c(OC)c2OC)[C@@H]1C(=O)OC.COC(=O)[C@H]1C(=O)O[C@@H](c2ccc(OC)c(OC)c2OC)[C@@H]1C(=O)OC = > 100 µM (inactive)
30) COc1ccc(/C=N/NC(=O)C2=C(N)N(c3ccccc3)C(=C(C#N)C#N)S2)cc1 = > 100 µM (inactive)
31) O=C(CCCCCCCCCCc1ccccc1)C1=C(O)CC(O)CC1=O (stereo not given) = 72.4 µM (inactive)
32) Cc1ccc(/C=N/n2c(-c3ccc(C)cc3)n[nH]c2=O)cc1 = > 100 µM (inactive)
33) Clc1ccc(-c2cn3c(nc4ccccc43)c(/C=C/c3ccco3)n2)cc1 = 57.9 µM (inactive)
34) COC(=O)/C=C/CCC#Cc1ccccc1C#CCC/C=C/C(=O)OC = 47.5 µM (inactive)
35) CN[C@@H](C)[C@H](N)c1ccccc1 = > 100 µM (inactive)
36) CN(C)CCNC(=O)c1cccc2nc3c4ccccc4c4ccccc4c3nc12 = 1.79 µM (inactive)
37) COC1CC2C3/C(=N/Nc4ccc([N+](=O)[O-])cc4[N+](=O)[O-])CCC2(C)C3C1 (stereo not given) = > 100 µM (inactive)
38) Cc1ccc(NP(=O)(Oc2ccccc2)N(CCCl)CCCl)cc1 (stereo not given) = > 100 µM (inactive)
39) CC(C)[C@@H](C)[C@@]1(C)C[C@@H]1[C@@H](C)[C@H]1CC[C@@H]([C@@H]2CC=C3C[C@@H](O)CC[C@]3(C)C2=O)[C@]1(C)CCO = 7.53 µM (inactive)
40) Nc1ncnc2c1ncn2C1CC(OC2CCCCO2)C(CO)O1 (stereo not given) = > 100 µM (inactive)
